Each record here notes measured Kd.
biological target: BRD4 bromodomains (Homo sapiens); construct: fused on or other part: T7 phage capsid protein (phage-display fusion; the phage DNA is read out by qPCR); experiment: BROMOscan bromodomain competition binding assay (DiscoveRx); settings: Kd from 11 compound concentrations ranging from 0 to 10 μM, read-out: BROMOscan Relative Activity

Illustrative cases are given below, each with its answer.
>>> measurement("Cc1noc(C)c1-c1ccc2nc(C(=O)NCC3CN(C)C3)nc(NCc3cccc(Cl)c3)c2c1")
"< 500 nM"
>>> measurement("CN(C)CCN1CCN(c2nc(NCc3cccc(Cl)c3)c3cc(-c4ccn(C)c(=O)c4)ccc3n2)CC1")
"> 5000 nM"
>>> measurement("Cc1noc(C)c1-c1ccc2nc(C(=O)N3CCc4[nH]ncc4C3)nc(N3CCOC[C@@H]3c3ccccc3)c2c1")
"500 to 5000 nM"

Please look at this compound and report its Kd: Cc1nc(CNC(=O)c2nc(NCc3cccc(Cl)c3)c3cc(-c4c(C)noc4C)ccc3n2)cs1
< 500 nM

Please look at this compound and report its Kd: Cc1noc(C)c1-c1ccc2nc(-c3cnn(CCO)c3)nc(NCc3cncc(Cl)c3)c2c1
< 500 nM

Please look at this compound and report its Kd: Cc1cncc(CNc2nc(N3CCN(CCN(C)C)CC3)nc3ccc(-c4c(C)noc4C)cc23)c1
< 500 nM

Please look at this compound and report its Kd: Cc1cc(CNC(=O)c2nc(NCc3cccc(Cl)c3)c3cc(-c4c(C)noc4C)ccc3n2)ccn1
< 500 nM
